test system: Tribolium confusum; assay: Antifeedant activity against Tribolium confusum (confused flour beetle) in compound treated wheat wafer discs assessed as antifeedant index by no-choice/two-choice assay; format: functional
Listed here are compounds together with their documented Activity.
Write the value as a bare number.

compound	assayed_system	Activity
C=C(CO)C(=O)O[C@H]1CC(=C)[C@@H]2C[C@H](O)[C@]3(CO3)[C@@H]2[C@H]2OC(=O)C(=C)[C@@H]21 [JANERIN]	Tribolium confusum	104
COc1cc(/C=C/CO)cc(OC)c1O[C@@H]1O[C@H](CO)[C@@H](O)[C@H](O)[C@H]1O [SYRINGIN]	Tribolium confusum	125.6
C=C(C)C(=O)O[C@H]1CC(=C)[C@@H]2C[C@H](O)C(=C)[C@@H]2[C@H]2OC(=O)C(=C)[C@@H]21 [AGUERIN B]	Tribolium confusum	114.5

Below: the item to evaluate.
Ask | Recorded Activity for C=C(CO)C(=O)O[C@H]1CC(=C)[C@@H]2C[C@H](O)C(=C)[C@@H]2[C@H]2OC(=O)C(=C)[C@@H]21 [CYNAROPICRIN] , please?
Reply | 98.8
